- Test method notes: Cytotoxicity against human HepG2(2.2.15) cells by MTT assay
- Format: cell-based
- Stated conditions: hepg2 2.2.15
Reported metric: CC50 (µM)

>>> print(df.to_string())
                               smiles_entry  measured
0  CC(=O)[C@]1(O)CC[C@@]2(O)[C@]1(C)[C@H](OC(=O)/C=C(\C)C(C)C)C[C@@H]1[C@@]3(C)CC[C@H](O)CC3=CC[C@]12O       245

* * *

- System: Hepatitis B virus
- Test method notes: Selectivity ratio of CC50 for human HepG2(2.2.15) cells to IC50 for Hepatitis B virus infected in human HepG2.2.15 cells assessed as suppression of HBsAg secretion
- Format: cell-based
- Stated conditions: read-out: Ratio CC50/IC50

Smiles entry	Sign qualifier	selectivity ratio
CC(=O)[C@]1(O)CC[C@@]2(O)[C@]1(C)[C@H](OC(=O)/C=C(\C)C(C)C)C[C@@H]1[C@@]3(C)CC[C@H](OC(=O)/C=C/n4ccnc4)CC3=CC[C@]12O	>	78
CC(=O)[C@]1(OC(=O)/C=C/c2ccccc2Cl)CC[C@@]2(O)[C@]1(C)[C@H](OC(=O)/C=C(\C)C(C)C)C[C@@H]1[C@@]3(C)CC[C@H](OC(=O)/C=C/c4ccccc4Cl)CC3=CC[C@]12O	=	1.6
COCC(=O)O[C@H]1CC[C@@]2(C)C(=CC[C@]3(O)[C@@H]2C[C@@H](OC(=O)/C=C(\C)C(C)C)[C@@]2(C)[C@]3(O)CC[C@@]2(OC(=O)COC)C(C)=O)C1	>	4.2
CC(=O)[C@]1(O)CC[C@@]2(O)[C@]1(C)[C@H](OC(=O)/C=C(\C)C(C)C)C[C@@H]1[C@@]3(C)CC[C@H](O)CC3=CC[C@]12O	=	1.7
COCC(=O)O[C@H]1CC[C@@]2(C)C(=CC[C@]3(O)[C@@H]2C[C@@H](OC(=O)/C=C(\C)C(C)C)[C@@]2(C)[C@]3(O)CC[C@@]2(O)C(C)=O)C1	=	1.4

* * *

- Tested on: Hepatitis B virus
- Test method notes: Selectivity ratio of CC50 for human HepG2(2.2.15) cells to IC50 for Hepatitis B virus infected in human HepG2(2.2.15) cells assessed as suppression of HBeAg secretion
- Type: cell-based
- Stated conditions: read-out: Ratio CC50/IC50
Reported metric: selectivity ratio

Molecule	Reported metric	Sign qualifier	Measured
C[C@H](Cn1cnc2c(N)ncnc21)OCP(=O)(O)O [TENOFOVIR ANHYDROUS]	selectivity ratio	>	1.5
CC(=O)[C@]1(O)CC[C@@]2(O)[C@]1(C)[C@H](OC(=O)/C=C(\C)C(C)C)C[C@@H]1[C@@]3(C)CC[C@H](OC(=O)COc4ccccc4)CC3=CC[C@]12O	selectivity ratio	=	3.3
CC(=O)[C@]1(OC(=O)c2cccnc2)CC[C@@]2(O)[C@]1(C)[C@H](OC(=O)/C=C(\C)C(C)C)C[C@@H]1[C@@]3(C)CC[C@H](OC(=O)c4cccnc4)CC3=CC[C@]12O	selectivity ratio	>	2.4
CC(=O)[C@]1(O)CC[C@@]2(O)[C@]1(C)[C@H](OC(=O)/C=C(\C)C(C)C)C[C@@H]1[C@@]3(C)CC[C@H](OC(=O)c4cccnc4)CC3=CC[C@]12OC(=O)c1cccnc1	selectivity ratio	=	1.7
CC(=O)[C@]1(O)CC[C@@]2(O)[C@]1(C)[C@H](OC(=O)/C=C(\C)C(C)C)C[C@@H]1[C@@]3(C)CC[C@H](OC(=O)COCC(=O)O)CC3=CC[C@]12O	selectivity ratio	=	2.4
CC(=O)[C@]1(O)CC[C@@]2(O)[C@]1(C)[C@H](OC(=O)/C=C(\C)C(C)C)C[C@@H]1[C@@]3(C)CC[C@H](OC(=O)c4cc5ccccc5[nH]4)CC3=CC[C@]12O	selectivity ratio	=	1.1
CC(=O)[C@]1(O)CC[C@@]2(O)[C@]1(C)[C@H](OC(=O)/C=C(\C)C(C)C)C[C@@H]1[C@@]3(C)CC[C@H](OC(=O)c4cnccn4)CC3=CC[C@]12O	selectivity ratio	>	1.2
CC(=O)[C@]1(O)CC[C@@]2(O)[C@]1(C)[C@H](OC(=O)/C=C(\C)C(C)C)C[C@@H]1[C@@]3(C)CC[C@H](OC(=O)/C=C/n4ccnc4)CC3=CC[C@]12O	selectivity ratio	>	111
CC(=O)[C@]1(O)CC[C@@]2(O)[C@]1(C)[C@H](OC(=O)/C=C(\C)C(C)C)C[C@@H]1[C@@]3(C)CC[C@H](OC(=O)C(C#N)=C(C)C)CC3=CC[C@]12O	selectivity ratio	=	2
